Exercise: for every item that follows, state its recorded koff.
Biological target: T1, Notch1 extracellular fragment (amino acid 19-526) Fc fusion protein, R&D Systems 3647-TK (human, UniProt P46531 19-526)
T1 construct: bought protein; also called Notch1/Fc; Notch1-ECD Fc fusion protein; not shown: Fc of the bought fusion protein
T1 sequence (P46531 19-526 limits assumed): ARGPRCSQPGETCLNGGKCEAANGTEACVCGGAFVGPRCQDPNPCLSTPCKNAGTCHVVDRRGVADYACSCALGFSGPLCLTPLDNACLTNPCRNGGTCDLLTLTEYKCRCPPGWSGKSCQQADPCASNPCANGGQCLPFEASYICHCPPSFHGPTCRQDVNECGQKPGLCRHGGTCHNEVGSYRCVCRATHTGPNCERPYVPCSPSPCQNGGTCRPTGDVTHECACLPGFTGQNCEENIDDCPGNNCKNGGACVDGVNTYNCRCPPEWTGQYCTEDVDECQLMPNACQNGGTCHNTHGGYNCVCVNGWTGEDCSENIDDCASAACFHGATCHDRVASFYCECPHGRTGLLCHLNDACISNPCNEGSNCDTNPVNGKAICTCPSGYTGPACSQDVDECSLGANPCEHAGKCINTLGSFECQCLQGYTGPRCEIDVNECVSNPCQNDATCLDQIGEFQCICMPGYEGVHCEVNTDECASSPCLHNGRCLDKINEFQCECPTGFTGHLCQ
Assay: BIAcore SPR, Notch1/Fc on CM5, Mab analyte, 1:1 binding
Numbers only, in s⁻¹.

Before answering, review these 2 worked examples.
binder	testReadout	measurementUnit	numericReadout
S3-009 (antibody, human IgG1, lambda, V domains shown, also called hN1S3-009; HN1S3-9) VH: EVQLVQSGAEVKKPGASVKVSCKASGYNFTGYYMHWVRQAPGQGLEWMGWINPNSGGTNYAQKFQGRVTMTRDTSISTAYMELSRLRSDDTAVYYCATDSFDYWGQGTMVTVSS VL: SYVLTQPPSVSEAPRQRVTISCSGSSSNIGNNAVSWYQQLPGKAPKTLIYYDDLLSSGVSDRFSGSRSGTSASLAISGLQSEDEADYYCAAWDDSLNGVVFGGGTKLTVLQ	koff	s⁻¹	0.00268
HN1S3-133 (antibody, human IgG1, lambda, V domains shown) VH: QVQLVQSGPEVKKPGTSVKVSCKASGFTFTSSAVQWVRQARGQRLEWIGWIVVGSGNTNYAQKFQERVTITRDMSTSTAYMELSSLRSEDTAVYYCVADTVYWGQGTLVTVSS VL: QSVLTQPPSVSEAPRQRVTISCSGSSSNIGNNAVNWYQQLPGEAPKLLIYYDDLLPSGVSDRFSGSKSGSSASLAISGLQAEDEADYYCATWDDSLNAWVFGGGTKVTVLQ	koff	s⁻¹	0.0004

For every listed record, write down its koff.
1. WC-173 (antibody, human IgG1, lambda, V domains shown, also called N1wc173; hN1wc-173) VH: EVQLVQSGAEVKKPGASVKVSCKASGYNFTGYYMHWVRQAPGQGLEWMGWINPNSGGTNYAQKFQGRVTMTRDTSISTAYMELSRLRSDDTAVYYCATDSFDYWGQGTTVTVSS VL: QPVLTQPPSASWTPGQRVTISCSGSSSNIGSNTVHWYRQFPGTAPQLLIYSNNQRPSGVPDRFSGSKSGTSASLAIRGLQSEDEADYYCAAWDDSLNGVVFGGGIKLTVLQ
2. WC-155 (antibody, human IgG1, lambda, V domains shown, also called N1wc155; hN1wc-155) VH: EVQLVQSGAEVKKPGASVKVSCKASGYNFTGYYMHWVRQAPGQGLEWMGWINPNSGGTNYAQKFQGRVTMTRDTSISTAYMELSRLRSDDTAVYYCATDSFDYWGRGTLVTVSS VL: QSVLTQPPSVSGAPGQRVTISCTGSSSNIGAGYDVLWYRQLPGTAPKLLIYGNTHRPSGVPDRFSGSNSGTSASLAITGLQAEDEADYYCQSYDSSLSGSVFGGGTKLTVLQ

[0.000447, 0.00029]
